Molecular target: histamine H1 -receptors (Rattus norvegicus, UniProt P31390)
Sequence (P31390 whole entry): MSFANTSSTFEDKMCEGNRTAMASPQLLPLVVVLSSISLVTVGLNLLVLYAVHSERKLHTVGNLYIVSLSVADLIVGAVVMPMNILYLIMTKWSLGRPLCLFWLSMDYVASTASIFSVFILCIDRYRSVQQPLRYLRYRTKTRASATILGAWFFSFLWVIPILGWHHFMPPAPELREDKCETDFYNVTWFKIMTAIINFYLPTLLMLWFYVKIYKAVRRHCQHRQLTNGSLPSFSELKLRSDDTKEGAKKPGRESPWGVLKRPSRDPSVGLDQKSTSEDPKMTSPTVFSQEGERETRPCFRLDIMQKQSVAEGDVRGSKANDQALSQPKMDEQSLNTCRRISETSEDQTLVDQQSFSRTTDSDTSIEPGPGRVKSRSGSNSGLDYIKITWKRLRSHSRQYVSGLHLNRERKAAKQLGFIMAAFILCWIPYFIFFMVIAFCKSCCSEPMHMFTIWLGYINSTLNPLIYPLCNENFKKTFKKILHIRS
Structures can show the parent of a compound that is named as a salt.
observation-type: IC50 (nM)
Number in nM, nothing else.

Task: What reported IC50 corresponds to CN1CCN2[C@@H](c3ccccc3)Cc3cc(O)ccc3[C@@H]2C1 (relative stereo) [Example 2, dihydrobromide] on histamine H1 -receptors (Rattus norvegicus, UniProt P31390)?
Output: 250
